Test system: Streptococcus sp. 'group B'
Experiment: Antimicrobial activity against Group B streptococcus R8 harboring T77I, S353F and A514V in PBP 2X; V80A and G613R in PBP 2B; and L45P, N163K, N723S and G527V in PBP 1A by broth microdilution method
Type: functional
Exercise: state measured MIC for each of the compounds provided.
Value expressed in µg/mL; do not type the unit.

**Q:** Please report MIC for the following compound: CO/N=C(\C(=O)N[C@@H]1C(=O)N2C(C(=O)[O-])=C(C[N+]3(C)CCCC3)CS[C@H]12)c1csc(N)n1 [CEFEPIME]
**A:** 1

**Q:** Supply reported MIC belonging to this compound: "CC1(C)S[C@@H]2[C@H](NC(=O)Cc3ccccc3)C(=O)N2[C@H]1C(=O)O"
**A:** 1

**Q:** Item "C[C@@H](O)[C@H]1C(=O)N2C(C(=O)O)=C(S[C@@H]3CN[C@H](C(=O)N(C)C)C3)[C@H](C)[C@H]12" : provide MIC
**A:** 0.25

**Q:** Hello, please tell me recorded MIC for this one: "CO/N=C(\C(=O)N[C@@H]1C(=O)N2C(C(=O)[O-])=C(C[n+]3ccn4ncccc43)CS[C@H]12)c1nsc(N)n1"
**A:** 1

**Q:** Look up MIC of "CO/N=C(\C(=O)N[C@@H]1C(=O)N2C(C(=O)O)=C(COC(C)=O)CS[C@H]12)c1csc(N)n1" and report it.
**A:** 1

**Q:** Specify measured MIC for "CC1(C)S[C@@H]2[C@H](NC(=O)[C@H](N)c3ccccc3)C(=O)N2[C@H]1C(=O)O" .
**A:** 0.5

Cited source: ChEMBL document CHEMBL1275555
